target-or-system: human NMUR2 (human, UniProt Q9GZQ4 1-415)
Sequence (Q9GZQ4 whole entry): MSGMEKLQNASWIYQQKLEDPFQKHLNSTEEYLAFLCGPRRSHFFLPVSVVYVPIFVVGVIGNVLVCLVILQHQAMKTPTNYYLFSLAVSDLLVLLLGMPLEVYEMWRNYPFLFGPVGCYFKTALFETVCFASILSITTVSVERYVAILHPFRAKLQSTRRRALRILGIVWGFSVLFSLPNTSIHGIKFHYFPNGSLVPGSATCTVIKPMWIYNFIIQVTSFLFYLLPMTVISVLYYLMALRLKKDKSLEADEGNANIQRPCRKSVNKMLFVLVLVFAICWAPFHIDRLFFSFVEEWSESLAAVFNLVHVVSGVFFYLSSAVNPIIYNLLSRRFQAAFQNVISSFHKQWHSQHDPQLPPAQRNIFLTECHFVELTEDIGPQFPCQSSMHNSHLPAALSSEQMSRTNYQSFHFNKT
test: cell-based or functional assay
Starred links: 1 amine or outer side, 2 acyl side, 3 side chain; linkers in the order of their positions; H or OH if unused. Non-standard residues stand in square brackets, D forms with d. *: point of attachment. Ttds = 1-amino-4,7,10-trioxa-13-tridecanamine succinimic acid spacer, O=C(CCC(=O)[*:2])NCCCOCCOCCOCCCN[*:1]; (PEG)2 40 kDa = branched PEG of 40 kDa linked via the Cys side-chain thiol (code C2 = Cys(PEG)2 40 kDa); Cholesteroyl = cholesterol linked to a cysteine residue via the side-chain thiol; Succinimide(1-Et,3-yl) = CCN1C(=O)CC(*)C1=O
measure: EC50 (FLIPR) (nM)

{"binder": "Ac-C(PEG 20 kDa)C(PEG 20 kDa)FRVDEEFQSPFASQSRGYFLFRPRN-NH2 [NMU23]", "measured": 1000}
{"binder": "Ac-C(PEG 20 kDa)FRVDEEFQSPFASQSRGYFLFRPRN-NH2 [NMU21]", "measured": 24.2}
{"binder": "Ac-C(Cholesteroyl)GYFLFRPRN-NH2 [NMU11]", "measured": 1000}
{"binder": "Ac-C(Succinimide(1-Et,3-yl))[Ttds]FLFRPRN-NH2 (SMILES CCN1C(=O)CC(SC[C@H](NC(C)=O)C(=O)NCCCOCCOCCOCCCNC(=O)CCC(=O)N[C@@H](Cc2ccccc2)C(=O)N[C@@H](CC(C)C)C(=O)N[C@@H](Cc2ccccc2)C(=O)N[C@@H](CCCNC(=N)N)C(=O)N2CCC[C@H]2C(=O)N[C@@H](CCCNC(=N)N)C(=O)N[C@@H](CC(N)=O)C(N)=O)C1=O) [NMU15]", "measured": 4.2}
{"binder": "Ac-C((PEG)2 40 kDa)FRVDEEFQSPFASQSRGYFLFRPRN-NH2 [NMU9]", "measured": 91.1}
